System: Plasmodium berghei
Experiment: Screen against P. berghei liver stage (PbLuc), transformed with Luciferase, at 10uM
Format: functional, HepG2
Conditions: tested at 10 uM
Among all 69,000 compounds or so, about 8,600 (12%) showed an effect of 50% or more. For the sample, strong results were picked, then their nearest neighbours and some compounds at random.
Label rule, in plain words: INHIBITION of 40% and up is rule met, under 40% is rule not met.

Sample answers from the record:
• CC(C)(C)c1n[nH]c(C2CN(C(=O)CCCn3cccn3)CCO2)n1 (stereo not drawn) = rule not met
• Cc1cc(C)c2c(OCC(=O)NC(C)C)nn(C)c2n1 = rule not met
• COc1ccccc1CNC(C)c1ccc(-n2ccnc2)cc1 (stereo not drawn) = rule met
• Cc1cnn(CC2CCCCN2CC(=O)Nc2cccnc2)c1 (stereo not drawn) = rule not met
• COC(C)(C)CNC(=O)N1CCCC1c1c(C)n[nH]c1C (stereo not drawn) = rule met
• Cc1noc2ncc(C(=O)NCC3CCCO3)cc12 (stereo not drawn) = rule not met
• Cc1noc(C2CCC3(CCN(C(=O)c4cnccn4)CC3)O2)n1 (stereo not drawn) = rule not met
• Cc1cnc(N2CCCC(O)C2)nc1-c1ccnn1C (stereo not drawn) = rule not met
• Cc1nn(C)c(C)c1CC(=O)NCc1ccnc(OC2CCCC2)c1 = rule not met
• Cc1cccc(C2(NC(=O)CCCn3cncn3)CCCC2)c1 = rule met

Identify whether the reported INHIBITION of the following molecule is 40% or greater: CCC(CC)C(=O)N1CCOC2(COCCN(CC(=O)NC)C2)C1 (stereo not drawn)
rule not met

Identify whether the reported INHIBITION of the following molecule is 40% or greater: O=C(NCCC(=O)N1CCCc2ccccc21)c1c(F)cccc1F
rule not met

Identify whether the reported INHIBITION of the following molecule is 40% or greater: CCc1c(O)nc2nc(N3CCOCC3)nn2c1C
rule not met

Identify whether the reported INHIBITION of the following molecule is 40% or greater: O=C(NCCC(=O)N1CCCc2ccccc21)c1c(O)cc(F)cc1F
rule met

Identify whether the reported INHIBITION of the following molecule is 40% or greater: COc1ccc(C2(NC(=O)c3ccc(=O)n(C)n3)CCCC2)cc1
rule not met

Identify whether the reported INHIBITION of the following molecule is 40% or greater: O=C(CCCn1cncn1)NC1(c2cccc(Br)c2)CC1
rule not met

Identify whether the reported INHIBITION of the following molecule is 40% or greater: CC(NCc1ccccc1O)c1ccc(-n2ccnc2)cc1 (stereo not drawn)
rule met

Identify whether the reported INHIBITION of the following molecule is 40% or greater: CCOc1ccc(CN(C)C(=O)c2nc(N3CCCC3)ncc2Cl)cc1
rule not met
